method: chemical genetic growth profiling, strain panel (AID 1159580);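 also: tested at 20 µM; growth read once vehicle control cultures reached saturation at 30 °C; 1 = growth at the plate median or of vehicle wells; lower values mean less growth of the strain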
experimental_parameters: S. cerevisiae deletion strains, growth OD, locus YOR061W, strain CKA2, stronger effect = lower value
Out of some 5,500 compounds screened, about 2,000 (36%) were called active. About 18% were inconclusive and are not listed. The list shows a part of the results.

{"compound": "C[C@@H](Nc1ncnc2sc3c(c12)CCCC3)c1ccccc1", "normalized growth": 0.916}
{"compound": "COC(=O)[C@@H]1OC(=O)C2OC23[C@@]1(C)CCC1[C@]2(C)C(C[C@@H](O)[C@]13C)C(C)(C)[C@H](OC(C)=O)C[C@@H]2OC(C)=O (stereo not given in full)", "normalized growth": 1.02}
{"compound": "CC(C)/C(O)=C1/C(=O)O[C@@H](c2ccoc2)[C@]2(C)C(O)[C@@H](O)[C@@]34OC5(C)OC67CC(C)(C(O)[C@]6(O)[C@@H](O)[C@]3(O5)C12)[C@H](CC(=O)O)[C@]74C (stereo not given in full)", "normalized growth": 1}
{"compound": "COc1ccc(-c2csc(-c3cccnc3)n2)cc1", "normalized growth": 0.929}
{"compound": "CC(=O)O[C@]1(C)CC[C@@]23CC1C(C)(C)[C@@H]2CC[C@H]3C", "normalized growth": 1}
{"compound": "O=C1CCCN1CC#CCN1CCCC1", "normalized growth": 1.01}
{"compound": "Clc1ccccc1-c1csc(-c2ccncc2)n1", "normalized growth": 0.99}
{"compound": "O=C(Nc1cc(Cl)ccc1O)c1ccccc1CSc1ccc(Cl)cc1", "normalized growth": 0.603}
{"compound": "CNC(=O)Sc1c(-c2ccc(Cl)cc2)nn(C(=O)NC)c1SC", "normalized growth": 0.355}
{"compound": "Brc1ccc(-c2csc(-c3cccnc3)n2)cc1", "normalized growth": 0.792}
